Anti-CD28 Fab signal in the presence of CD28 reference
# Tested System: T1, Anti-CD28 Fab (SEQ ID NOs: 696, 697)
# T1 construct: Biotinylated and captured on neutravidin coated plates in the phage ELISA
# T1 sequence (VH, as listed by the source, chain 1 of 2): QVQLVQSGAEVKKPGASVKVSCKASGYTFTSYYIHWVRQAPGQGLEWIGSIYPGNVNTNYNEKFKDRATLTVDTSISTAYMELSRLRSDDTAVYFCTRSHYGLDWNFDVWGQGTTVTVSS
# T1 sequence (VL, as listed by the source, chain 2 of 2): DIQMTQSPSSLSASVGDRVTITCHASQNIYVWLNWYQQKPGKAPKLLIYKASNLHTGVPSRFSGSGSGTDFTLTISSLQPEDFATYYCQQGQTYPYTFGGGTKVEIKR
# Experimental Details: phage binding ELISA; Fab on plate pre-incubated with CD28 antigen as competitor, anti-M13 HRP detection;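 also: crude clonal phage supernatants screened by ELISA, with comparison wells pre-incubated in blocking buffer only, lacking CD28 antigen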
Where no end group is shown, it is not given here.
Respond using a number only.

Previously resolved entries follow.
Binder	Value Observed
YCEGHSPMYMQKCM (cysteine pairing not given here; also: displayed on phage by fusion to pIII, pIII and linker sequence not given here, Clonal phage of the Peptide-87 library; not shown: fused to the pIII filament protein of the bacteriophage) [Phage-805]	0.06
YCDGHTEEYMDKCL (cysteine pairing not given here; also: displayed on phage by fusion to pIII, pIII and linker sequence not given here, Clonal phage of the Peptide-87 library; not shown: fused to the pIII filament protein of the bacteriophage) [Phage-810]	0.09

Indicate its recorded Anti-CD28 Fab signal in the presence of CD28; the binder in question is YCDGHSAEYMEKCI (cysteine pairing not given here; also: displayed on phage by fusion to pIII, pIII and linker sequence not given here, Clonal phage of the Peptide-87 library; not shown: fused to the pIII filament protein of the bacteriophage) [Phage-806] 0.07

Fill in Anti-CD28 Fab signal in the presence of CD28 for record YCAGHSSEYIWKCL (cysteine pairing not given here; also: displayed on phage by fusion to pIII, pIII and linker sequence not given here, Clonal phage of the Peptide-87 library; not shown: fused to the pIII filament protein of the bacteriophage) [Phage-812] 0.06
